Cited source: patent US10287301B2

assay system: Human Factor D (Homo sapiens (Human), UniProt P00746)
Sequence (P00746 26-253): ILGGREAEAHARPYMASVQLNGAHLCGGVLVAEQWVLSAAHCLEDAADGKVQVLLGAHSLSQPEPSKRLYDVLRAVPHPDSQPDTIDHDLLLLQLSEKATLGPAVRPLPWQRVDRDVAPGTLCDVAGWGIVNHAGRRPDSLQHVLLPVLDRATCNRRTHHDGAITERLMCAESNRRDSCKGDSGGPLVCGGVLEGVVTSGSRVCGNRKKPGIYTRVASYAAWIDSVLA
test details: Human Factor D Assay
Assay type: biochemical
run conditions: Human Factor D, Table 3; read-out: IC50
pIC50: −log10 of the molar value.
assay metric: pIC50

{"query smiles": "CC(=O)c1cn(CC(=O)N2C[C@H](F)C[C@H]2C(=O)Nc2cccc(OC(F)(F)F)n2)c2ccc(-c3cnc4cc(C)nn4c3)cc12", "endpoint value": "> 6.00"}
{"query smiles": "CC(=O)c1nn(CC(=O)N2[C@H](C(=O)N[C@H](C)C(F)=C(C)C)C[C@@]3(C)C[C@@H]23)c2ccc(-c3cnc(C)nc3)cc12", "endpoint value": "> 6.00"}

Task: Note down pIC50 recorded for "CC(=O)c1ccc(Cl)c(-c2cccc(NC(=O)[C@@H]3C[C@H]4C[C@H]4N3C(=O)Cn3nc(C(N)=O)c4sc(-c5cnc(C)nc5)nc43)c2F)c1"
Output: > 6.00

---

assay system: UniProtKB P00746
test details: Human Factor D Assay
Type: biochemical
run conditions: Human Factor D 80 nM, substrate Z-L-Lys-SBzl; read-out: IC50
Measured IC50, listed per entry.

Task: Note down IC50 recorded for "CC(=O)c1cn(CC(=O)N2[C@@H]3C[C@@H]3C[C@H]2C(=O)Nc2cccc(Br)n2)c2ccc(-c3cncnc3)cc12"
Output: < 1 µM

Task: Note down IC50 recorded for "Cn1cnnc1-c1ccccc1NC(=O)[C@@H]1C[C@@H](F)CN1C(=O)Cn1nc(C(N)=O)c2cc(-c3ccnnc3)ccc21"
Output: > 10 µM

Task: Note down IC50 recorded for "NC(=O)c1nn(CC(=O)N2C[C@H](F)C[C@H]2C(=O)NCc2cc(F)cc(Cl)c2)c2ccc(-c3ccnnc3)cc12"
Output: < 1 µM

Task: Note down IC50 recorded for "CC(=O)c1cn(CC(=O)N2C[C@H](F)C[C@H]2C(=O)Nc2cccc(-c3ccccc3Cl)c2F)c2ccc(-c3cnc(C(F)(F)F)nc3)cc12"
Output: < 1 µM

Task: Note down IC50 recorded for "COc1ncc(-c2ccc3c(c2)c(C(C)=O)cn3CC(=O)N2C[C@H](F)C[C@H]2C(=O)Nc2cccc(Br)n2)cn1"
Output: < 1 µM

Task: Note down IC50 recorded for "NC(=O)c1nn(CC(=O)N2C[C@H](F)C[C@H]2C(=O)Nc2nccc(Cl)n2)c2ccc(-c3ccnnc3)cc12"
Output: > 10 µM

Task: Note down IC50 recorded for "COc1ncc(-c2ccc3c(c2)c(C(C)=O)cn3CC(=O)N2[C@@H]3C[C@@H]3C[C@H]2C(=O)Nc2cccc(-c3ccccc3Cl)c2F)cn1"
Output: < 1 µM

---

assay system: UniProt:P00746
test details: Human Factor D Assay
Format: biochemical
run conditions: Human Factor D, Table 3; read-out: IC50
pIC50: −log10 of the molar value.
assay metric: pIC50

{"query smiles": "Cc1cccc(NC(=O)[C@@H]2[C@H]3CC[C@H](C3)N2C(=O)Cn2cc(C(N)=O)c3cc(-c4cnc5n4CCCC5)ccc32)n1", "assay system": "UniProt:P00746", "pIC50": "< 5.00"}
{"query smiles": "CC(=O)c1nn(CC(=O)N2C[C@H](F)C[C@H]2C(=O)Nc2cccc(Br)n2)c2ccc(-c3cnn(C4CC4)c3)cc12", "assay system": "UniProt:P00746", "pIC50": "> 6.00"}

Next item in the queue.
Task: Note down pIC50 recorded for "CC(=O)c1nn(CC(=O)N2C[C@H](F)C[C@H]2C(=O)Nc2ccn(CC(F)(F)F)n2)c2ccc(-c3cnc4cc(C)nn4c3)cc12"
Output: > 6.00

---

Measured IC50, listed per entry.
assay system: Human Factor D (Homo sapiens (Human), UniProt P00746)
test details: Human Factor D Assay
Type: biochemical
run conditions: Human Factor D assay of Example 8; Table 2; read-out: IC50

These recorded examples may help you get a feel for the data.
{"molecule": "CC(=O)c1cn(CC(=O)N2C[C@H](F)C[C@H]2C(=O)Nc2cccc(Cl)n2)c2ccc(-c3cnc4ccnn4c3)cc12 [Compound 223]", "assay system": "Human Factor D (Homo sapiens (Human), UniProt P00746)", "IC50": "< 1000 nM"}
{"molecule": "CC(=O)c1nn(CC(=O)N2C[C@H](F)C[C@H]2C(=O)Nc2cccc(-c3ccc4[nH]cnc4c3Cl)c2F)c2ccc(-c3cnc(C)nc3)cc12 [Compound 214]", "assay system": "Human Factor D (Homo sapiens (Human), UniProt P00746)", "IC50": "< 1000 nM"}
{"molecule": "CC(=O)c1nn(CC(=O)N2C[C@H](F)C[C@H]2C(=O)Nc2cccc(Br)n2)c2ccc(-c3cnn4ccnc4c3)cc12 [Compound 304]", "assay system": "Human Factor D (Homo sapiens (Human), UniProt P00746)", "IC50": "< 1000 nM"}
{"molecule": "CC(=O)c1nn(CC(=O)N2C[C@H](F)C[C@H]2C(=O)Nc2cccc(-c3ccccc3Cl)c2F)c2ccc(-c3cnc4ccnn4c3)cc12 [Compound 237]", "assay system": "Human Factor D (Homo sapiens (Human), UniProt P00746)", "IC50": "< 1000 nM"}

Task: Note down IC50 recorded for CC(=O)c1nn(CC(=O)N2C[C@H](F)C[C@H]2C(=O)Nc2cccc(OC(F)F)c2F)c2ccc(-c3cnc4cc(C)nn4c3)cc12 [Compound 281]
Output: < 1000 nM

Task: Note down IC50 recorded for CC(=O)c1cn(CC(=O)N2C[C@H](F)C[C@H]2C(=O)Nc2cccc(Br)n2)c2ccc(-c3cnc4cc(C)nn4c3)cc12 [Compound 277]
Output: < 1000 nM

Task: Note down IC50 recorded for NC(=O)c1nn(CC(=O)N2C[C@H](F)C[C@H]2C(=O)Nc2cccc(-c3ccccc3Cl)c2F)cc1-c1ccsc1 [Compound 208]
Output: 1000 to 10000 nM

Task: Note down IC50 recorded for CC(=O)c1nn(CC(=O)N2C[C@H](F)C[C@H]2C(=O)Nc2cccc(Br)n2)c2ccc(-c3cnc4cc(C(N)=O)nn4c3)cc12 [Compound 288]
Output: < 1000 nM

Task: Note down IC50 recorded for CC(=O)c1cn(CC(=O)N2C[C@H](F)C[C@H]2C(=O)Nc2cccc(-c3ccccc3Cl)c2F)c2ccc(-c3cnc(N)nc3)cc12 [Compound 215]
Output: < 1000 nM

Task: Note down IC50 recorded for CC(=O)c1nn(CC(=O)N2CC(=O)C[C@H]2C(=O)Nc2cccc(Br)n2)c2ccc(-c3cnc(C)nc3)cc12 [Compound 250]
Output: < 1000 nM

---

assay system: Human Factor D (Homo sapiens (Human), UniProt P00746)
test details: Human Factor D Assay
Format: biochemical
run conditions: Human Factor D, Table 3; read-out: IC50
Measured IC50, listed per entry.

These recorded examples may help you get a feel for the data.
{"compound": "CC(=O)c1nn(CC(=O)N2CCC[C@H]2C(=O)Nc2cccc(C)n2)c2ccc(-c3ccc4ccccc4c3)cc12 [Compound 585]", "assay system": "Human Factor D (Homo sapiens (Human), UniProt P00746)", "IC50": "> 10 µM"}
{"compound": "CC(=O)c1nn(CC(=O)N2C[C@H](F)C[C@H]2C(=O)Nc2cccc(Br)n2)c2ccc(-c3cnc(OC4CS(=O)(=O)C4)nc3)cc12 [Compound 591]", "assay system": "Human Factor D (Homo sapiens (Human), UniProt P00746)", "IC50": "< 1 µM"}

Next item in the queue.
Task: Report IC50 from Human Factor D (Homo sapiens (Human), UniProt P00746) testing of CC(=O)c1nn(CC(=O)N2C[C@H]3C[C@H]3[C@H]2C(=O)Nc2nc(Br)ccc2C)c2c(C)cc(-c3cnc(C)nc3)cc12 [Compound 652]
Output: < 1 µM

---

Measured IC50, listed per entry.
assay system: Human Factor D (Homo sapiens (Human), UniProt P00746)
test details: Human Factor D Assay
Assay type: biochemical

{"compound": "CCc1cn(CC(=O)N2NCCC2C(=O)Nc2cccc(-c3ccccc3Cl)c2F)c2ccc(-c3cnc(C)nc3)cc12 (stereo not drawn)", "IC50": "1 to 10 µM"}
{"compound": "NC(=O)c1nn(CC(=O)N2C[C@H](F)C[C@H]2C(=O)Nc2ncc(I)cn2)c2ccc(-c3ccnnc3)cc12", "IC50": "1 to 10 µM"}
{"compound": "Cc1ncc(-c2ccc3c(c2)c([C@@H](C)O)nn3CC(=O)N2C[C@H](F)C[C@H]2C(=O)Nc2cccc(Br)n2)cn1", "IC50": "1 to 10 µM"}

Task: Note down IC50 recorded for "NC(=O)c1nn(CC(=O)N2C[C@H](F)C[C@H]2C(=O)Nc2ncc(Br)cn2)c2ccc(-c3ccnnc3)cc12"
Output: 1 to 10 µM

Task: Note down IC50 recorded for "Cc1cccc(NC(=O)[C@@H]2[C@H]3CC[C@H](C3)N2C(=O)Cn2cc(C(N)=O)c3cc(-c4ccc5cccnc5c4)ccc32)n1"
Output: 1 to 10 µM

Task: Note down IC50 recorded for "Cc1cccc(NC(=O)[C@@H]2[C@H]3CC[C@H](C3)N2C(=O)Cn2cc(C(N)=O)c3cc(-c4ccc(F)nc4)ccc32)n1"
Output: > 10 µM
